Test system: NTERA-2-cl-D1 (Other Solid Carcinomas)
ASSAY_PROCEDURE: combination Emax (second highest fraction inhibited in the dose matrix, 72 h); higher = more inhibition; extreme values may be limits of the assay
Classify as follows. Reported combination Emax greater than or equal to 0.6: Yes. Reported combination Emax below: No.

COMPOUND	LABEL_CLASS
COc1cccc(OCCCN)c1-c1cc(Nc2cnc(C#N)cn2)n[nH]1 [Prexasertib] + CN(C)CCCOc1ccc(-c2ccc3ncc4c(c3c2)n(C2CCOCC2)c(=O)n4C)cn1 [AZD0156] (first compound max 1 µM, 7x7, partner max 1 µM)	No
NC1(C(=O)N[C@@H](CCO)c2ccc(Cl)cc2)CCN(c2ncnc3[nH]ccc23)CC1 [Capivasertib] + CC(=O)c1c(C)c2cnc(Nc3ccc(N4CCNCC4)cn3)nc2n(C2CCCC2)c1=O [Palbociclib] (first compound max 10 µM, 7x7, partner max 10 µM)	No
Cc1c2c(nn1C)CSCc1cc(n(C)n1)CSc1cc(c3ccccc3c1)OCCCc1c(C(=O)O)n(C)c3c-2c(Cl)ccc13 [AZD5991] + C[C@@H]1COCCN1C2=NC(=NC(=C2)C3(CC3)[S@](=N)(=O)C)C4=C5C=CNC5=NC=C4 [AZD6738] (first compound max 1 µM, 7x7, partner max 10 µM)	Yes
NC1(C(=O)N[C@@H](CCO)c2ccc(Cl)cc2)CCN(c2ncnc3[nH]ccc23)CC1 [Capivasertib] + COc1nnc2ccc(N3CCC(c4ccc(OCCN5CCN(C)C(=O)[C@H]5C)cc4)CC3)nn12 [AZD5153] (first compound max 10 µM, 7x7, partner max 1 µM)	No
CN(C)CCCOc1ccc(-c2ccc3ncc4c(c3c2)n(C2CCOCC2)c(=O)n4C)cn1 [AZD0156] + O=C(c1cc(Cc2n[nH]c(=O)c3ccccc23)ccc1F)N1CCN(C(=O)C2CC2)CC1 [Olaparib] (first compound max 3 µM, partner max 3 µM)	No
Cc1c2c(nn1C)CSCc1cc(n(C)n1)CSc1cc(c3ccccc3c1)OCCCc1c(C(=O)O)n(C)c3c-2c(Cl)ccc13 [AZD5991] + CS(=O)(=O)CCNCc1ccc(-c2ccc3ncnc(Nc4ccc(OCc5cccc(F)c5)c(Cl)c4)c3c2)o1 [Lapatinib] (first compound max 1 µM, 7x7, partner max 10 µM)	No
CN(CCO)CC[C@H](CSc1ccccc1)Nc1ccc(S(=O)(=O)NC(=O)c2ccc(N3CCC([C@@H](O)c4ccccc4-c4ccc(Cl)cc4)CC3)cc2)cc1S(=O)(=O)C(F)(F)F [AZD4320] + C[C@@H](Nc1cc(F)cc(F)c1)c1cc(C(=O)N(C)C)cc2c(=O)cc(N3CCOCC3)oc12 [AZD8186] (first compound max 1 µM, 7x7, partner max 3 µM)	Yes

====

System: IGROV-1 (Ovarian Carcinoma);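 further: after 72 h of two-drug dosing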
ASSAY_PROCEDURE: Bliss excess, mean over the matrix (fraction); higher = more synergy
Item-by-item account of Bliss excess
REPORTED_PROPERTY: Bliss excess

MOLECULE	ASSAY_TARGET	NUMERIC_RESULT
Cc1c2c(nn1C)CSCc1cc(n(C)n1)CSc1cc(c3ccccc3c1)OCCCc1c(C(=O)O)n(C)c3c-2c(Cl)ccc13 [AZD5991] + C[C@@H]1COCCN1C2=NC(=NC(=C2)C3(CC3)[S@](=N)(=O)C)C4=C5C=CNC5=NC=C4 [AZD6738] (first compound max 1 µM, 7x7, partner max 10 µM)	IGROV-1 (Ovarian Carcinoma)	0.0449
COc1nnc2ccc(N3CCC(c4ccc(OCCN5CCN(C)C(=O)[C@H]5C)cc4)CC3)nn12 [AZD5153] + CCN(CCO)CCCOc1ccc2c(Nc3cc(CC(=O)Nc4cccc(F)c4)[nH]n3)ncnc2c1 [AZD2811] (first compound max 1 µM, 7x7, partner max 1 µM)	IGROV-1 (Ovarian Carcinoma)	-0.0574
CN(CCO)CC[C@H](CSc1ccccc1)Nc1ccc(S(=O)(=O)NC(=O)c2ccc(N3CCC([C@@H](O)c4ccccc4-c4ccc(Cl)cc4)CC3)cc2)cc1S(=O)(=O)C(F)(F)F [AZD4320] + C[C@@H]1COCCN1C2=NC(=NC(=C2)C3(CC3)[S@](=N)(=O)C)C4=C5C=CNC5=NC=C4 [AZD6738] (first compound max 1 µM, 7x7, partner max 10 µM)	IGROV-1 (Ovarian Carcinoma)	-0.0353

====

System: ATN-1 (T-Lymphoblastic Leukemia)
ASSAY_PROCEDURE: combination Emax (second highest fraction inhibited in the dose matrix, 72 h); higher = more inhibition; extreme values may be limits of the assay
REPORTED_PROPERTY: combination Emax

MOLECULE	NUMERIC_RESULT
COc1nnc2ccc(N3CCC(c4ccc(OCCN5CCN(C)C(=O)[C@H]5C)cc4)CC3)nn12 [AZD5153] + Cn1cnc2c(F)c(Nc3ccc(Br)cc3Cl)c(C(=O)NOCCO)cc21 [Selumetinib] (first compound max 1 µM, 7x7, partner max 10 µM)	0.508
CC1(C)CCC(CN2CCN(c3ccc(C(=O)NS(=O)(=O)c4ccc(NCC5CCOCC5)c([N+](=O)[O-])c4)c(Oc4cnc5[nH]ccc5c4)c3)CC2)=C(c2ccc(Cl)cc2)C1 [Venetoclax] + CN(C)CCCOc1ccc(-c2ccc3ncc4c(c3c2)n(C2CCOCC2)c(=O)n4C)cn1 [AZD0156] (first compound max 1 µM, 7x7, partner max 1 µM)	0.402

====

Item-by-item account of combination Emax
System: BC-1 (B-Cell Non-Hodgkin's Lymphoma)
ASSAY_PROCEDURE: combination Emax (second highest fraction inhibited in the dose matrix, 72 h); higher = more inhibition; extreme values may be limits of the assay

COMPOUND	combination Emax
Cc1c2c(nn1C)CSCc1cc(n(C)n1)CSc1cc(c3ccccc3c1)OCCCc1c(C(=O)O)n(C)c3c-2c(Cl)ccc13 [AZD5991] + CC(=O)O[C@H]1C(=O)[C@@]2(C)[C@H]([C@H](OC(=O)c3ccccc3)[C@]3(O)C[C@H](OC(=O)[C@H](O)[C@@H](NC(=O)c4ccccc4)c4ccccc4)C(C)=C1C3(C)C)[C@]1(OC(C)=O)CO[C@@H]1C[C@@H]2O [Paclitaxel] (first compound max 1 µM, 7x7, partner max 3 µM)	1
COc1cccc(OCCCN)c1-c1cc(Nc2cnc(C#N)cn2)n[nH]1 [Prexasertib] + C[C@@H]1COCCN1C2=NC(=NC(=C2)C3(CC3)[S@](=N)(=O)C)C4=C5C=CNC5=NC=C4 [AZD6738] (first compound max 1 µM, 7x7, partner max 10 µM)	0.996
CC1(C)CCC(CN2CCN(c3ccc(C(=O)NS(=O)(=O)c4ccc(NCC5CCOCC5)c([N+](=O)[O-])c4)c(Oc4cnc5[nH]ccc5c4)c3)CC2)=C(c2ccc(Cl)cc2)C1 [Venetoclax] + C=CCn1c(=O)c2cnc(Nc3ccc(N4CCN(C)CC4)cc3)nc2n1-c1cccc(C(C)(C)O)n1 [AZD1775] (first compound max 1 µM, partner max 1 µM)	1
Cn1cnc2c(F)c(Nc3ccc(Br)cc3Cl)c(C(=O)NOCCO)cc21 [Selumetinib] + CC(C)n1c(=O)n(C)c2cnc3cc(F)c(-c4ccc(OCCCN5CCCCC5)nc4)cc3c21 [AZD1390] (first compound max 10 µM, 7x7, partner max 0.3 µM)	0.328
Cc1c2c(nn1C)CSCc1cc(n(C)n1)CSc1cc(c3ccccc3c1)OCCCc1c(C(=O)O)n(C)c3c-2c(Cl)ccc13 [AZD5991] + C=CCn1c(=O)c2cnc(Nc3ccc(N4CCN(C)CC4)cc3)nc2n1-c1cccc(C(C)(C)O)n1 [AZD1775] (first compound max 1 µM, partner max 1 µM)	1
CCN(CCO)CCCOc1ccc2c(Nc3cc(CC(=O)Nc4cccc(F)c4)[nH]n3)ncnc2c1 [AZD2811] + C[C@@H]1COCCN1C2=NC(=NC(=C2)C3(CC3)[S@](=N)(=O)C)C4=C5C=CNC5=NC=C4 [AZD6738] (first compound max 1 µM, 7x7, partner max 10 µM)	0.921
COc1nnc2ccc(N3CCC(c4ccc(OCCN5CCN(C)C(=O)[C@H]5C)cc4)CC3)nn12 [AZD5153] + Cc1c2c(nn1C)CSCc1cc(n(C)n1)CSc1cc(c3ccccc3c1)OCCCc1c(C(=O)O)n(C)c3c-2c(Cl)ccc13 [AZD5991] (first compound max 1 µM, 7x7, partner max 1 µM)	1
C=CCn1c(=O)c2cnc(Nc3ccc(N4CCN(C)CC4)cc3)nc2n1-c1cccc(C(C)(C)O)n1 [AZD1775] + O=C(c1cc(Cc2n[nH]c(=O)c3ccccc23)ccc1F)N1CCN(C(=O)C2CC2)CC1 [Olaparib] (first compound max 1 µM, partner max 10 µM)	0.998
CN(CCO)CC[C@H](CSc1ccccc1)Nc1ccc(S(=O)(=O)NC(=O)c2ccc(N3CCC([C@@H](O)c4ccccc4-c4ccc(Cl)cc4)CC3)cc2)cc1S(=O)(=O)C(F)(F)F [AZD4320] + CS(=O)(=O)CCNCc1ccc(-c2ccc3ncnc(Nc4ccc(OCc5cccc(F)c5)c(Cl)c4)c3c2)o1 [Lapatinib] (first compound max 1 µM, 7x7, partner max 10 µM)	0.961
Cc1c2c(nn1C)CSCc1cc(n(C)n1)CSc1cc(c3ccccc3c1)OCCCc1c(C(=O)O)n(C)c3c-2c(Cl)ccc13 [AZD5991] + Cc1cc2ncnn2cc1Nc1ncc2c(n1)n(C1CCOCC1)c(=O)n2C [AZD7648] (first compound max 1 µM, 7x7, partner max 10 µM)	1
CC(=O)c1c(C)c2cnc(Nc3ccc(N4CCNCC4)cn3)nc2n(C2CCCC2)c1=O [Palbociclib] + Cc1c2c(nn1C)CSCc1cc(n(C)n1)CSc1cc(c3ccccc3c1)OCCCc1c(C(=O)O)n(C)c3c-2c(Cl)ccc13 [AZD5991] (first compound max 10 µM, 7x7, partner max 1 µM)	1
C[C@@H](Nc1cc(F)cc(F)c1)c1cc(C(=O)N(C)C)cc2c(=O)cc(N3CCOCC3)oc12 [AZD8186] + C1CN(CCC1(C(=O)N[C@@H](CCO)C2=CC=C(C=C2)Cl)N)C3=NC=NC4=C3C=CN4 [AZD5363] (first compound max 10 µM, 7x7, partner max 10 µM)	0.577
CC1(C)CCC(CN2CCN(c3ccc(C(=O)NS(=O)(=O)c4ccc(NCC5CCOCC5)c([N+](=O)[O-])c4)c(Oc4cnc5[nH]ccc5c4)c3)CC2)=C(c2ccc(Cl)cc2)C1 [Venetoclax] + CCN(CCO)CCCOc1ccc2c(Nc3cc(CC(=O)Nc4cccc(F)c4)[nH]n3)ncnc2c1 [AZD2811] (first compound max 1 µM, 7x7, partner max 1 µM)	0.674

All figures here come from the supplement of paper PMC11061612.
